Origin of values: patent US7964531B2

Reported Crop injury against transplanted rice values for a set of compounds
System: transplanted paddy-field rice
Assay: Test Example 1: crop injury against transplanted paddy-field rice
Type: in vivo
Conditions: chemical dosage 20 g/a; wettable powder applied 3 days after transplanting; judged after 25 days
Quantity: Crop injury against transplanted rice

Structure String	System Name	Value Observed
CCc1cccc(Br)c1Oc1nnc(Cl)cc1O	transplanted paddy-field rice	0 (Growth inhibition rate; 0 to 10%)
Oc1cc(Cl)nnc1Oc1c(C2CC2)ccc2ccoc12	transplanted paddy-field rice	0 (Growth inhibition rate; 0 to 10%)
Oc1cc(Cl)nnc1Oc1c(Br)cccc1C1CC1	transplanted paddy-field rice	5 (Growth inhibition rate; 91 to 100%)
Oc1cc(Cl)nnc1Oc1cc(Cl)ccc1C1CC1	transplanted paddy-field rice	0 (Growth inhibition rate; 0 to 10%)
CCc1cc(I)cc(I)c1Oc1nnc(Cl)cc1O	transplanted paddy-field rice	0 (Growth inhibition rate; 0 to 10%)
CC(C)(C)c1cccc(C2CC2)c1Oc1nnc(Cl)cc1O	transplanted paddy-field rice	0 (Growth inhibition rate; 0 to 10%)
CCc1cccc(C2CC2)c1Oc1nnc(Cl)cc1O	transplanted paddy-field rice	5 (Growth inhibition rate; 91 to 100%)
Cc1cccc(C(C)C)c1Oc1nnc(Cl)cc1O	transplanted paddy-field rice	0 (Growth inhibition rate; 0 to 10%)
Oc1cc(Cl)nnc1Oc1c(Br)ccc2ccoc12	transplanted paddy-field rice	5 (Growth inhibition rate; 91 to 100%)
Cc1ccccc1Oc1nnc(Cl)cc1OS(C)(=O)=O	transplanted paddy-field rice	0 (Growth inhibition rate; 0 to 10%)
